# TEST DETAILS: NCI Yeast Anticancer Drug Screen. Data for the mec2-1 strain (AID 157)
# APPLIED CONDITIONS: S. cerevisiae mec2-1 strain, at 50.0 µM
Compounds without any hit were thinned out: in the full panel of roughly 79,000, 15% have a hit. The source made the active and inactive calls. Cut-off read from the data, not from the text of the source: active = growth inhibition above about 70%; inactive = the rest.
Give one outcome, nothing more. List: active, inactive

Asked: Outcome logged for O=C(Nc1ccc([As](=O)(O)O)cc1)Nc1cccc(Cl)c1Cl in this assay:
Given back: inactive

Asked: Outcome logged for CC(C)c1ccc(-n2c(=S)[nH]c3ccccc3c2=O)cc1 in this assay:
Given back: inactive

Asked: Outcome logged for C[As+](C)(C)c1cccc(N)c1 in this assay:
Given back: inactive

Asked: Outcome logged for C=C1CCC2CC1C2(C)C (configuration not stated) (tested in a mixture with another compound) in this assay:
Given back: inactive

Asked: Outcome logged for c1cc[c]([Sn]2([c]3ccccc3)[O]CCNCC[O]2)cc1 in this assay:
Given back: inactive

Asked: Outcome logged for COc1cc2c(cc1OC)[N+]1(C)CCC3OCCC4C[N+]5(C)CCC26C5CC4C3C61 (configuration not stated) in this assay:
Given back: inactive

Asked: Outcome logged for CN(N=O)C1=NC2(CCCCC2)P(=O)(NNc2ncccn2)O1 (configuration not stated) in this assay:
Given back: inactive

Asked: Outcome logged for CC1(O)CCC(O)CC1CC(=O)O (configuration not stated) in this assay:
Given back: inactive

Asked: Outcome logged for CC(=O)OC1=CC2=CC[C@H]3[C@@H]4CCC(=O)[C@@]4(C)CC(=O)[C@]3(S)[C@@]2(C)CC1 in this assay:
Given back: inactive

Asked: Outcome logged for O=C(Nc1ccccc1Cl)Oc1c(Cl)cc(S(=O)(=O)F)cc1Cl in this assay:
Given back: inactive

Asked: Outcome logged for NC(=S)c1cc(N(CCCl)CCCl)c([N+](=O)[O-])cc1[N+](=O)[O-] in this assay:
Given back: inactive

Asked: Outcome logged for NC(N)=NOCC[C@@H](N)C(=O)O in this assay:
Given back: inactive

Asked: Outcome logged for CO[C@@]12[C@@H]3N[C@@H]3CN1C1=C(C(=O)C(NCC3CCCO3)=C(C)C1=O)[C@@H]2COC(N)=O (some centres not stated) in this assay:
Given back: inactive

Asked: Outcome logged for O=[N+]([O-])c1ccc(C#Cc2ccc(N(CCCl)CCCl)cc2)cc1 in this assay:
Given back: inactive

Asked: Outcome logged for O=[N+]([O-])c1cccc(/C=C/C=C/c2ccc(Cl)c(S(=O)(=O)F)c2)c1 in this assay:
Given back: inactive

Asked: Outcome logged for CC(=O)Nc1nccs1.CC(=O)Nc1nccs1.[Cl][Pt][Cl] in this assay:
Given back: inactive

Asked: Outcome logged for C1CCC2[N-]CCCC2C1.C1CCC2[N-]CCCC2C1.O=[N+]([O-])O.O=[N+]([O-])O.[Cu+2] (configuration not stated) in this assay:
Given back: inactive

Asked: Outcome logged for COc1ccc2ccc3oc([N+](=O)[O-])cc3c2c1 in this assay:
Given back: inactive

Asked: Outcome logged for COc1ccc(Br)c(/C=C/[N+](=O)[O-])c1 in this assay:
Given back: active

Asked: Outcome logged for N#Cc1cccc([N+](=O)[O-])c1 in this assay:
Given back: inactive

Asked: Outcome logged for Cc1ccc(NCc2ccccc2)cc1[As](=O)(O)O in this assay:
Given back: inactive

Asked: Outcome logged for [CH3][Sn]([CH3])([CH3])[O]C(=O)C(O)c1ccccc1 (configuration not stated) in this assay:
Given back: inactive

---

# TEST DETAILS: NCI Yeast Anticancer Drug Screen. Data for the sgs1 mgt1 strain (AID 161)
# APPLIED CONDITIONS: S. cerevisiae sgs1 mgt1 strain, at 50.0 µM (retest, dose inferred, filed as 5.0)
Compounds without any hit were thinned out: in the full panel of roughly 79,000, 15% have a hit. The source made the active and inactive calls. No stated cut-off is given here; in the data, active means growth inhibition above about 70%; inactive means the rest.
Give one outcome, nothing more. List: active, inactive

Asked: Outcome logged for O=[n+]1c2ccccc2n([O-])c2ccccc21.[Cl][Cu][Cl] in this assay:
Given back: active

Asked: Outcome logged for O=NN(CC(=O)O)c1ncccn1 in this assay:
Given back: inactive

Asked: Outcome logged for ClCCN(CCCl)c1ccc(C2N(Cc3ccc(Cl)cc3)CCN2Cc2ccc(Cl)cc2)cc1 in this assay:
Given back: active

Asked: Outcome logged for C1CC[N-]CC1.C1CC[N-]CC1.N#C[S-].N#C[S-].[Cd] in this assay:
Given back: active

Asked: Outcome logged for Cc1ccc([NH-])cc1C.Cc1ccc([NH-])cc1C.[Cl][Pt+2][Cl] in this assay:
Given back: inactive

Asked: Outcome logged for CCC(=O)C(CCN1CCC(N2C(=O)C(CCC#N)c3ccccc32)CC1)(c1ccccc1)c1ccccc1 (stereo unspecified) in this assay:
Given back: inactive

Asked: Outcome logged for CCC[CH2][Sn]1([CH2]CCC)[O]C(=O)c2ccc(C)cc2[O]1 in this assay:
Given back: active

Asked: Outcome logged for CCOP(=O)(OCC)C(O)c1ccccc1Cl (stereo unspecified) in this assay:
Given back: inactive

Asked: Outcome logged for O=C1C=CC(=O)C(Br)C1Br (stereo unspecified) in this assay:
Given back: inactive

Asked: Outcome logged for CC(=O)OC1=CC2=CC[C@H]3[C@@H]4CCC(=O)[C@@]4(C)CC(=O)[C@]3(S)[C@@]2(C)CC1 in this assay:
Given back: inactive

Asked: Outcome logged for Cc1ccc(N=P(c2ccccc2)(c2ccccc2)c2ccccc2)cc1.[Br][Hg][Br] in this assay:
Given back: active

Asked: Outcome logged for CN(C)c1ncnc2c1ncn2C1OC(CO)C2NP(=O)(N(CCCl)CCCl)OC21 (stereo unspecified) in this assay:
Given back: inactive

Asked: Outcome logged for O=[N+]([O-])c1ccc(Br)c([N+](=O)[O-])c1 in this assay:
Given back: active

Asked: Outcome logged for Nc1ccccc1C(=O)c1ccccc1 in this assay:
Given back: inactive

Asked: Outcome logged for COc1cccc(C2N(Cc3ccc(N(CCCl)CCCl)cc3C)CCCN2Cc2ccc(N(CCCl)CCCl)cc2C)c1O in this assay:
Given back: active

Asked: Outcome logged for CC12CCC(=O)C=C1CCC1C2CCC2(C)C(O[Si](C)(C)OC3CCC4C5CCC6=CC(=O)CCC6(C)C5CCC34C)CCC12 (stereo unspecified) in this assay:
Given back: inactive

Asked: Outcome logged for CC(C)c1oc(=O)cc2c1C(O)C1OC(=O)C3(C)C(O)C4OC4C2(C)C13 (stereo unspecified) in this assay:
Given back: active

Asked: Outcome logged for O=P1(N2CCOCC2)OC(c2ccccc2)=CCN1c1ccccc1 (stereo unspecified) in this assay:
Given back: active

Asked: Outcome logged for O=C1C(C(Nc2ccccc2)c2ccccc2)=C([O-])c2ccccc21.O=C1C(C(Nc2ccccc2)c2ccccc2)=C([O-])c2ccccc21.[Co+2] (stereo unspecified) in this assay:
Given back: inactive

Asked: Outcome logged for CCN1CCC(O)(c2ccc(O)cc2)C(C(=O)c2ccc(O)cc2)C1 (stereo unspecified) in this assay:
Given back: inactive

Asked: Outcome logged for CCC(=O)O.[Ag] in this assay:
Given back: active

Asked: Outcome logged for O=C(N/N=C/c1cc(Br)cc(Br)c1[O-])c1ccccc1O.O=C(N/N=C/c1cc(Br)cc(Br)c1[O-])c1ccccc1O.[Mn+2] in this assay:
Given back: active

Asked: Outcome logged for CC/C(=C\c1ccc(Cl)c(Cl)c1)[N+](=O)[O-] in this assay:
Given back: active

Asked: Outcome logged for O=[N+]([O-])/C=C/c1c(Cl)cccc1Cl in this assay:
Given back: active

Asked: Outcome logged for CN(C=O)C(=S)[S][Sb]([S]C(=S)N(C)C=O)[S]c1nc2ccc(N=Nc3ccc(NS(=O)(=O)c4ccc(NC(=O)C(N5CC5)(N5CC5)N5CC5)cc4)cc3)cc2s1 in this assay:
Given back: inactive

Asked: Outcome logged for CC(=O)[O][Hg][c]1c(C)c(C)cc(C)c1C in this assay:
Given back: active

Asked: Outcome logged for O=C([CH-]C(=O)c1ccccc1)c1ccccc1.O=C([CH-]C(=O)c1ccccc1)c1ccccc1.O=C([CH-]C(=O)c1ccccc1)c1ccccc1.[OH3+].[Y+3] in this assay:
Given back: active

Asked: Outcome logged for COc1ccc([As](O[As](c2ccc(OC)cc2)c2ccc(OC)cc2)c2ccc(OC)cc2)cc1 in this assay:
Given back: active

Asked: Outcome logged for COc1cc(/C=C(/C)[N+](=O)[O-])ccc1O in this assay:
Given back: inactive

Asked: Outcome logged for OC1CCCC2CCCNC12 (stereo unspecified) in this assay:
Given back: active

Asked: Outcome logged for O=C(c1ccccc1)c1cc(CN(CCCl)CCCl)c(O)cc1O in this assay:
Given back: active

Asked: Outcome logged for CC(C)CC[CH2][Pb]([CH2]CCC(C)C)([CH2]CCC(C)C)[O]C(=O)C(Cl)(Cl)Cl in this assay:
Given back: active

Asked: Outcome logged for CN(C)C(=S)Nc1nnc(NC23CC4CC(CC(C4)C2)C3)s1 in this assay:
Given back: inactive

Asked: Outcome logged for CC(CCc1ccccc1)NC(C)C(O)c1ccc(O)cc1 (stereo unspecified) in this assay:
Given back: inactive

Asked: Outcome logged for CC(C)C1(NC(=O)C2CC3c4cccc5[nH]cc(c45)CC3N(C)C2)OC2(O)C3CCCN3C(=O)C(Cc3ccccc3)N2C1=O (stereo unspecified) in this assay:
Given back: active

Asked: Outcome logged for COc1ccc2nc3ccccc3c(NCCCCN(C)CCCl)c2c1 in this assay:
Given back: active

Asked: Outcome logged for O=C1N[C@H]2[C@H](O)[C@H](O)[C@@H](O)[C@H](O)[C@@H]2c2cc3c(c(O)c21)OCO3 in this assay:
Given back: inactive

Asked: Outcome logged for Oc1c(Cl)c(Cl)cc(Cl)c1Cl in this assay:
Given back: active

Asked: Outcome logged for O=C1C=C(Cl)C(=O)C(Cl)=C1 in this assay:
Given back: active

Asked: Outcome logged for C[n+]1c(/C=C/c2ccc(O)c3ccccc23)[se]c2ccccc21 in this assay:
Given back: active

Asked: Outcome logged for CC(C)(C)OOC(=O)/C=C\C(=O)OOC(C)(C)C in this assay:
Given back: inactive
